# System: Rattus norvegicus
# protocol_details: Antiobesity activity in high fat diet-induced obese Sprague-Dawley rat assessed as reduction in body weight at 10 mg/kg, po administered daily for 3 days relative to control
# Format: functional
# Parameters: scale not given: the % may be the effect or the level left
measured_metric: Activity (%)
Only the number, expressed in %, is required.

Cc1ccc(-c2ccccc2C(=O)Nc2ccc3cc(C(=O)N[C@H](C(=O)N(C)Cc4ccc(F)cc4)c4ccccc4)ccc3n2)cc1
75
CN(Cc1ccc(F)cc1)C(=O)[C@@H](NC(=O)c1ccc2nc(NC(=O)c3ccccc3-c3ccc(OC(C)(C)C)cc3)ccc2c1)c1ccccc1
108
CN(Cc1ccccc1)C(=O)[C@@H](NC(=O)c1cc2cc(NC(=O)c3ccccc3-c3ccc(C(F)(F)F)cc3)ccc2n1C)c1ccccc1 [DIRLOTAPIDE]
8

Would you kindly look at the next entry?
Q: Provide the reported Activity (system: Rattus norvegicus) for Cn1c(C(=O)N[C@H](C(N)=O)c2ccccc2)cc2cc(NC(=O)c3ccccc3-c3ccc(C(F)(F)F)cc3)ccc21
Result: 108
